testSystem: T1, recombinant human full-length TDP-43 (TAR DNA-binding protein 43), soluble (human, UniProt Q13148 1-414)
T1 construct: Used on Luminex beads, coated on ELISA plates, and immobilized or injected in SPR; also called FL TDP-43; TDP-43 protein
T1 sequence (Q13148 whole entry): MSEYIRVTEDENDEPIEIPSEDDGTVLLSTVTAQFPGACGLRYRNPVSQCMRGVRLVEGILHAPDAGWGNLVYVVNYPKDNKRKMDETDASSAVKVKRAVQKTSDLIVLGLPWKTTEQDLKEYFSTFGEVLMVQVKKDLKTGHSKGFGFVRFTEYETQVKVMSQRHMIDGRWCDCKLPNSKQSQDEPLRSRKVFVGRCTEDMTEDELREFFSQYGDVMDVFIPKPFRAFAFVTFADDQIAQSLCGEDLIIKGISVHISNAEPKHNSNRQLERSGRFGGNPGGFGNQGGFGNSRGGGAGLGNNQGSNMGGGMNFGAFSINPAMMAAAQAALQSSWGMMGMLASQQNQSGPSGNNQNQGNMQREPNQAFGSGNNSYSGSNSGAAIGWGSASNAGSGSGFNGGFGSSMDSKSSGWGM
experimentalProtocol: SPR 8K, immobilized soluble TDP-43
quantityKind: koff (s⁻¹)
Write the value in s⁻¹ as a bare number.

In: Bench note: what koff did hACI-7069-633B12-Ab1_H19L17 (IgG4) (antibody, V domains shown) VH: QVQLVQSGAEVKKPGASVKVSCKTSGFTFTEYSMHWVRQAPGQRLEWIGGINPGNAGTSYNQKFKGRVTITVDTSASTAYMELSSLRSEDTAVYYCARESWGQGTTVTVSS VL: DVVMTQSPLSLPVTLGQPASISCKSSQSLLHSDAKTYLNWLLQRPGQSPRRLIYLVSKLDSGVPDRFSGSGSGTDFTLKISRVEAEDLGVYYCFQGTHFPHTFGQGTKLEIK show?
Out: 3.5e-05

FYI, the data here is from patent US20230322908A1.
